# Tested on: H. influenzae Rd KW20
# Test: MIC, agar dilution, HTM medium
# Type: cell-based, Haemophilus influenzae
# Condition Parameters: Haemophilus influenzae, RDKW20, read-out: MIC
Recorded Metric: MIC (µg/mL)

Molecule: CC[C@H]1OC(=O)[C@H](C)C(=O)[C@H](C)[C@@H](O[C@@H]2O[C@H](C)C[C@H](N(C)C)[C@H]2O)[C@](C)(OC)C[C@@H](C)C(=O)[C@H](C)[C@H]2[C@H](SCCn3cc(C)c(=O)[nH]c3=O)C(=O)O[C@@]21C [Compound I-7]
MIC [µg/mL]: 4
--
Molecule: CC[C@H]1OC(=O)[C@H](C)[C@@H](O[C@H]2C[C@@](C)(OC)[C@@H](O)C(C)O2)[C@H](C)[C@@H](O[C@@H]2OC(C)C[C@H](N(C)C)[C@H]2O)[C@](C)(O)C[C@@H](C)CN(C)C(C)C(O)[C@]1(C)O (stereo partly drawn) [Azithromycin (3), azithromycin]
MIC [µg/mL]: 2
--
Molecule: CC[C@H]1OC(=O)[C@H](C)C(=O)[C@H](C)[C@@H](O[C@@H]2O[C@H](C)C[C@H](N(C)C)[C@H]2O)[C@](C)(OC)C[C@@H](C)C(=O)[C@H](C)[C@H]2N(CCCCn3cnc(-c4cccnc4)c3)C(=O)O[C@]12C [Telithromycin (4), telithromycin]
MIC [µg/mL]: 4
--
Molecule: CC[C@H]1OC(=O)[C@H](C)[C@@H](O[C@H]2C[C@@](C)(OC)[C@@H](O)[C@H](C)O2)[C@H](C)[C@@H](O[C@@H]2O[C@H](C)C[C@H](N(C)C)[C@H]2O)[C@](C)(OC)C[C@@H](C)C(=O)[C@H](C)[C@@H](O)[C@]1(C)O [Clarithromycin (2), clarithromycin]
MIC [µg/mL]: 8
--
Molecule: CC[C@H]1OC(=O)[C@H](C)C(=O)[C@H](C)[C@@H](O[C@@H]2O[C@H](C)C[C@H](N(C)C)[C@H]2O)[C@](C)(OC)C[C@@H](C)C(=O)[C@H](C)[C@H]2[C@H](SCCn3cnc4c(N)ncnc43)C(=O)O[C@@]21C [Compound I-14]
MIC [µg/mL]: 4
--
Molecule: CC[C@H]1OC(=O)[C@H](C)[C@@H](O[C@H]2C[C@@](C)(OC)[C@@H](O)[C@H](C)O2)[C@H](C)[C@@H](O[C@@H]2O[C@H](C)C[C@H](N(C)C)[C@H]2O)[C@](C)(O)C[C@@H](C)C(=O)[C@H](C)[C@@H](O)[C@]1(C)O [Erythromycin (1), erythromycin A]
MIC [µg/mL]: 4

---

# System: St. pneumoniae 1/1
# Test: MIC, standard microdilution
# Format: cell-based, Streptococcus pneumoniae
# Condition Parameters: Streptococcus pneumoniae, read-out: minimum inhibitory concentration (MIC)
Recorded Metric: MIC

Molecule: CC[C@H]1OC(=O)[C@H](C)C(=O)[C@H](C)[C@@H](O[C@@H]2O[C@H](C)C[C@H](N(C)C)[C@H]2O)[C@](C)(OC)C[C@@H](C)C(=O)[C@H](C)[C@H]2[C@H](SCCn3ccc(-c4cccnc4)n3)C(=O)O[C@@]21C [Compound I-16]
MIC: ≤ 0.12 µg/mL

// sample CC[C@H]1OC(=O)[C@H](C)C(=O)[C@H](C)[C@@H](O[C@@H]2O[C@H](C)C[C@H](N(C)C)[C@H]2O)[C@](C)(OC)C[C@@H](C)C(=O)[C@H](C)[C@H]2[C@H](SCc3ccccc3)C(=O)O[C@@]21C [Compound I-4] , its MIC was ≤ 0.5 µg/mL
